Molecular target: H-2K^b (Mus musculus, UniProt P01901)
Construct: For accumulation of peptide-free MHC I proteins at the cell surface, the cells were cultured for 16 hours at 26°C; endogenous in cells; host or cells: RMA-S cells (TAP-deficient mouse T lymphoma)
Sequence (P01901 22-369): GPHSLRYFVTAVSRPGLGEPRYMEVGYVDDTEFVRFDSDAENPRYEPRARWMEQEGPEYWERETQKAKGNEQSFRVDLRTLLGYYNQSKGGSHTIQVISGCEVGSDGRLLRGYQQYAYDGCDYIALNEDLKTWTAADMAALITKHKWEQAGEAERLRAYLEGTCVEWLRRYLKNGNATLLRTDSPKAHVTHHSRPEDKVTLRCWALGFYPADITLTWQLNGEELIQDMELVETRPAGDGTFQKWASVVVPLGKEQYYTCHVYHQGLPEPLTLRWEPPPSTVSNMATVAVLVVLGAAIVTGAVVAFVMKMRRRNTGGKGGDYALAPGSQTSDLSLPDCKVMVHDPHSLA
Sequence (P01887 21-119 partner): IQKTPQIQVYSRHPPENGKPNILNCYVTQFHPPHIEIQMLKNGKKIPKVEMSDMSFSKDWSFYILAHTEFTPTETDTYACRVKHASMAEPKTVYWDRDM
Assay: MHC I stabilization assay with TAP-deficient RMA-S cells
Format: cell-based
Details: peptide concentration for 50% of maximal MHC I stabilization (half-maximal MFI), 100 to 5.6 × 10^−4 μg/mL, 1 h room temperature then 1 h 37°C, flow cytometry with antibody B8.24.3, standard deviation in brackets, N = 3, n.d.: not detectable, SD, read-out: Experimental EC50
Where no end group is shown, it is not given here.
RESULT TYPE: pEC50
Kindly note that pEC50 refers to -log10 of the concentration in mol/L and answer with the value alone.

Example entries begin here.
>  <RESIDUE SEQUENCE>
WRFVYWRL [Peptide 5]

>  <REPORTED MEASUREMENT>
5.10

$$$$
>  <RESIDUE SEQUENCE>
WRFIYFNL [Peptide 6]

>  <REPORTED MEASUREMENT>
5.44

$$$$
>  <RESIDUE SEQUENCE>
WRFKYDNL [Peptide 4]

>  <REPORTED MEASUREMENT>
5.15

$$$$

Query :: Check the records and state pEC50 for WDFKFDSV [Peptide 7]
Result :: 5.05

Query :: # return recorded pEC50 for entry FRYPYKTL [Peptide 1]
Result :: 4.62

Query :: Identify measured pEC50 associated with WKFIFDPV [Peptide 8]
Result :: 6.40

Query :: Using known records, supply pEC50 for FHWDYRGL [Peptide 3]
Result :: 4.60

* * *

target: H-2K^b (Mus musculus, UniProt P01901); construct: For accumulation of peptide-free MHC I proteins at the cell surface, the cells were cultured for 16 hours at 26°C; endogenous in cells; host or cells: RMA-S cells (TAP-deficient mouse T lymphoma); test: MHC I stabilization assay with TAP-deficient RMA-S cells; format: cell-based; conditions: peptide concentration for 50% of maximal MHC I stabilization (half-maximal MFI), 100 to 5.6 × 10^−4 μg/mL, 1 h room temperature then 1 h 37°C, flow cytometry with antibody B8.24.3, standard deviation in brackets, N = 3, n.d.: not detectable, read-out: Experimental EC50
Where no end group is shown, it is not given here.
RESULT TYPE: pEC50
API: returns pEC50 as number; meaning -log10 of concentration in mol/L.

>  <RESIDUE SEQUENCE>
FRYIYHTL [Seq. 2]

>  <pEC50>
4.70

$$$$

Query :: Could you please provide reported pEC50 for FHHAHRTV [sequence 9] ? Thanks!
Result :: 5.05

Values compiled from paper PMC2876253.
